system: CCRF-CEM leukemia; test: NCI tumour cell line growth inhibition, 48 h
endpointName: TGI

CC(O)C1(CNc2cc(Cl)nc(N)n2)CCCCC1 (stereo not given); > 100 µM
COc1ccc([N+](=O)[O-])c2c(NCCCN(C)C)ccnc12; 61.9 µM
COc1cc(C2CC(c3cccc(Nc4ccnc5cc(Cl)ccc45)c3)=NN2c2ccc(Cl)cc2)cc(OC)c1OC (stereo not given); > 100 µM
Cc1c(O)c(N=Nc2nc3ccccc3s2)c2ccccc2c1O; > 50 µM
COc1nc2cccc(C(O)c3ccccc3)c2nc1-c1ccccc1 (stereo not given); 10.8 µM
CC/C=C\C[C@H](F)C/C=C1/C(=O)C=C[C@@H]1C/C=C\CCCC(=O)OC; 5.75 µM
C[C@]12CCC(=O)C(OC(=O)c3ccc([N+](=O)[O-])cc3)=C1CCC2=O; > 100 µM
COc1ccc2c3c(Nc4cccc(/C(C)=N\O)c4)[nH]c4ccccc4c-3c(N=O)c2c1; > 100 µM
Oc1ccc([C@H]2c3c(O)cc(O)cc3C3c4c(cc(O)cc4[C@@H]2[C@H]2c4cc(O)cc5c4C(c4cc(O)cc(O)c4[C@@H]2c2ccc(O)cc2)[C@@H](c2ccc(O)cc2)O5)O[C@@H]3c2ccc(O)cc2)cc1 (stereo not given in full); > 100 µM
CO[C@@H]1C=C[C@@]23c4cc5c(cc4CN(C[C@@H]2O)[C@H]3C1)OCO5; 47.7 µM
CCCCOC(=O)c1ccc(N)cc1; > 100 µM
Cc1[nH]c(=O)[nH]c(=O)c1/C=C/C(=O)O (tested in a mixture with another compound); > 625 µM
COC(=O)N1CC(=O)C(C(=O)NC23CC4CC(CC(C4)C2)C3)C1 (stereo not given); > 100 µM
CC(C)C12Cc3c(ccc4ccccc34)OC1(C)Oc1ccc3ccccc3c1C2 (stereo not given); > 100 µM
Cc1ccc(-c2nc3ccccc3c(=O)n2NCC2(O)OCC(O)C(O)C2O)cc1 (stereo not given); > 100 µM

Cited source for all entries: PubChem BioAssay (NCI)
